Test system: PDE4
Assay: Cell Based Assay for PDE4 Inhibition: cAMP elevation in whole U937 cells
Details: 1 μM PGE1, normalized over PGE1
I'd be grateful if you could share measured EC50 for these entries.
One number for each entry, in nM.

Please review the entries below; each comes with its answer.
Ask | # EC50 lookup, item COc1ccc(C(=O)Nc2c(Cl)cncc2Cl)c2c1oc1ccc(Br)cc12
Reply | 44.2

Ask | Bench note: what EC50 did COc1ccc(C(=O)Nc2c(Cl)cncc2Cl)c2c1oc1ccc(C#N)cc12 show?
Reply | 73.7

Ask | Sample COc1ccc(C(=O)Nc2c(Cl)c[n+]([O-])cc2Cl)c2c1oc1ccc(C(F)(F)F)cc12 — what was its EC50?
Reply | 117

Ask | Returns the measured EC50 for the input molecule. Input: O=C(Nc1c(Cl)cncc1Cl)c1ccc(OC(F)F)c2oc3ccc([N+](=O)[O-])cc3c12
Reply | 148

Each of the following entries comes with a recorded value; kindly state EC50 for each.
1. COc1ccc(C(=O)Nc2c(Cl)cncc2Cl)c2c1oc1ccc(Cl)cc12
2. O=C(Nc1c(Cl)cncc1Cl)c1ccc(OC(F)F)c2oc3ccccc3c12
3. Nc1ccc2oc3c(OC(F)F)ccc(C(=O)Nc4c(Cl)cncc4Cl)c3c2c1
4. COc1ccc(C(=O)Nc2c(Cl)cncc2Cl)c2c1oc1ccccc12
5. O=C(Nc1c(Cl)cncc1Cl)c1ccc(OC(F)F)c2oc3ccc(C(F)(F)F)cc3c12
6. O=C(Nc1c(Cl)c[n+]([O-])cc1Cl)c1ccc(OC(F)F)c2oc3ccccc3c12

Reply |
1: 200; 2: 20.4; 3: 49.2; 4: 83.7; 5: 140; 6: 49.2

###

Observation type: melting point

Here is how some molecules turned out for melting point.
Ask | I'd like to know its melting point. The molecule in question is COc1ccc(C(=O)Nc2c(Cl)cncc2Cl)c2c1oc1ccc(N)cc12
Reply | 249 °C (dec.)

Ask | Give the measured melting point of O=C(Nc1ccccn1)c1ccc(OC(F)F)c2oc3ccc(C(F)(F)F)cc3c12 .
Reply | 169 to 170 °C

Ask | Param item = COc1ccc(C(=O)Nc2c(Cl)cncc2Cl)c2c1oc1ccc(I)cc12 ; retrieve measured melting point.
Reply | 304 °C (dec.)

Ask | // query melting point value for entry COc1ccc(C(=O)Nc2c(Cl)c[n+]([O-])cc2Cl)c2c1oc1ccccc12
Reply | 265 to 270 °C

Ask | melting point lookup needed for COc1c(C(=O)Nc2c(Cl)cncc2Cl)ccc2c1oc1ccccc12 , thanks.
Reply | 176 °C (dec.)

For each listed entry, give its melting point.
1. COc1ccc(C(=O)Nc2cccnc2)c2c1oc1ccccc12
2. O=C(Nc1cccnc1)c1ccc(OC(F)F)c2oc3ccc(C(F)(F)F)cc3c12

Reply |
226 °C
235 to 236 °C

Provide melting point values for the following items, in order.
1. O=C(Nc1c(Cl)cncc1Cl)c1ccc(OCc2ccccc2)c2oc3ccccc3c12
2. O=C(Nc1c(Cl)cncc1Cl)c1ccc(OCC2CC2)c2oc3ccccc3c12

Reply |
1: 269 to 270 °C (dec.); 2: 242 °C

###

Field: melting point. Provide a value for each of the molecules that follow.

Ask | Fill in the blank: the reported melting point of Nc1ccc2oc3c(OC(F)F)ccc(C(=O)Nc4c(Cl)cncc4Cl)c3c2c1 [Example 59] is ____.
Reply | > 270 °C

Ask | Give the measured melting point of O=C(Nc1c(Cl)cncc1Cl)c1ccc(OC(F)F)c2oc3ccc(C(F)(F)F)cc3c12 [Example 12] .
Reply | 228 °C

Would you kindly look at the next entry?
Ask | What does the record list as melting point for O=C(Nc1c(Cl)cncc1Cl)c1ccc(OC(F)F)c2oc3ccccc3c12 [Example 19] ?
Reply | 270 °C

# credit: patent US7238725B2
